Target: α1-adrenoceptor (Rattus norvegicus, UniProt P43140)
Construct: One method involves assessing the activity on the isolated anococcygeus muscle of the rat; from tissue; host or cells: rat anococcygeus muscle
Sequence (P43140 whole entry): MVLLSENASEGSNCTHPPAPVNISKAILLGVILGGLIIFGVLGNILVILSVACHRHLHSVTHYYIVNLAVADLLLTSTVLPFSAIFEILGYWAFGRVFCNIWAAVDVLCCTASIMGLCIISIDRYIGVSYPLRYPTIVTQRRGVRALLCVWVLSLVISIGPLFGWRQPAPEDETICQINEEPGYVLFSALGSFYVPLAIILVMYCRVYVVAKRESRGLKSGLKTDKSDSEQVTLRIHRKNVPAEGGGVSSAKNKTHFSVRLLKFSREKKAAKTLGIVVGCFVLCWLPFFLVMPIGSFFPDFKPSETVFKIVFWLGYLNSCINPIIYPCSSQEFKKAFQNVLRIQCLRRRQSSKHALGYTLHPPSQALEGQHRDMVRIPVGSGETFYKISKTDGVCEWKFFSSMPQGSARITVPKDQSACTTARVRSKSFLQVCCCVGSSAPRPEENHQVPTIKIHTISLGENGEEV
Experiment: α1 antagonistic activity on the isolated anococcygeus muscle of the rat (phenylephrine or methoxamine as agonist)
Settings: antagonism of phenylephrine or methoxamine, rat anococcygeus muscle, 37°, 30 min equilibration, 10^-6 to 10^-4 M; Arunlakshana & Schild; read-out: pA2 (α1) (converted)
endpoint: Kb (nM)

(1) CN(C)CCS(=O)(=O)N(C)[C@@H]1CCN2CCc3ccccc3[C@@H]2C1 (relative stereo)
(2) CN(C)S(=O)(=O)N(C)[C@@H]1CCN2CCc3ccccc3[C@@H]2C1 (relative stereo)
(3) CNS(=O)(=O)N(C)[C@@H]1CCN2CCc3ccccc3[C@@H]2C1 (relative stereo)
(4) CC(C)NS(=O)(=O)N(C)[C@@H]1CCN2CCc3ccccc3[C@@H]2C1 (relative stereo)
Request: Rank items: key Kb, increasing. // format: requested-order list of labels
Response: 4, 3, 2, 1

* * *

Molecular target: α2-adrenoceptor (Rattus norvegicus, UniProt P22909)
Construct: from tissue; host or cells: rat vas deferens
Sequence (P22909 whole entry): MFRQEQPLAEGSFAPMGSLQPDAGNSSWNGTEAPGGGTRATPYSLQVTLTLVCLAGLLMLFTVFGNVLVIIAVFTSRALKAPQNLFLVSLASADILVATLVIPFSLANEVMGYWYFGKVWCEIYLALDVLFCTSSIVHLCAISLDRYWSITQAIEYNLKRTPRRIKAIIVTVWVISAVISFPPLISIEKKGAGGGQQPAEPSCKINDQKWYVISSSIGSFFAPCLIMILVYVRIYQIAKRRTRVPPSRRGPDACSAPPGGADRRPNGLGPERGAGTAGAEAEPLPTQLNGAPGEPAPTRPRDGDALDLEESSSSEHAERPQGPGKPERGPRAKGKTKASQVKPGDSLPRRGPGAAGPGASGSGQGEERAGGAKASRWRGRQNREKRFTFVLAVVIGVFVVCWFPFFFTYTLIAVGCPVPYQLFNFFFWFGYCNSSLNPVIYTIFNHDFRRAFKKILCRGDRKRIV
Test: α2-adrenoceptor antagonistic activity on the rat field stimulated vas deferens preparation (clonidine as agonist)
Conditions: antagonism of clonidine, 37°, 90 min after introduction of antagonist, Arunlakshana & Schild, read-out: pA2 (α2) (converted)
endpoint: Kb (nM)

> print(dat)
                                   compound  measure.unit  reported.result
1  CNS(=O)(=O)N(C)[C@@H]1CCN2CCc3ccccc3[C@@H]2C1 (relative stereo)            nM             36.3
2  CN(C)CCS(=O)(=O)N(C)[C@@H]1CCN2CCc3ccccc3[C@@H]2C1 (relative stereo)            nM               55
3  CC(C)NS(=O)(=O)N(C)[C@@H]1CCN2CCc3ccccc3[C@@H]2C1 (relative stereo)            nM             37.2
4  CN(C)S(=O)(=O)N(C)[C@@H]1CCN2CCc3ccccc3[C@@H]2C1 (relative stereo)            nM             39.8
